What apparent KD of K4 kissing-loop reporter was measured for each of the following?
Tested on: K4 kissing-loop RNA reporter
procedure text: apparent KD of K4 kissing-loop reporter; higher = weaker reporter binding
run parameters: Eterna round: R107; input ligand: theophylline 20 uM
Give just the numeric value; µM need not be written.

// recorded apparent KD of K4 kissing-loop reporter for UGAUACCAGGCGGCCGCCACUCCCGCAGGUCAAAGACCUGCGAAGCUGGUUCUCCAGUGAUGUUGGAGGACCGGGCCUGGUAUCU [FiskerMod 26 - Jieux - Exclusion - Tryptophan B] : 0.168

The recorded apparent KD of K4 kissing-loop reporter for entry UGGUUAAGCAGUGAUGUUGCAAGUAAUGAUACCAGUUAAGAAGAGAACCCUUGGCAGCAUAAAGUGCGCUCUGAUGAGUGUGCUU [whbob_SS_Theo_A_w54] equals 0.239

According to the records, this sequence AUGUCUGAUAGCAGUGAUGUUGCUUCGGAUACCAGACGAGAUCAUGUCCCUUGGCAGCUGACACGGCACGUGCUAGGUUAGAUGA [whbob_Ex_Theo_A_th72] displays apparent KD of K4 kissing-loop reporter of 0.116

get_value(item= AAAAUAAAUCAGUGAUGUUGGUAUCCGGAUACCAGCGAUAAUCAUCGCCCUUGGCAGCCGUGGACGUACAAAAUAAGUACGUCCU [MatMod 16 - Jieux - Same State - Theophylline A] , readout=apparent KD of K4 kissing-loop reporter) returns 0.171

Entry CGCAGUGAUGUUGCGAAUAUAAUAACGGAAGGAGCGCGUGAAAACGCAGGUAGGUCGCCGAUUGGUAUGAUGGAAACAUCGUACC [Arginine A K4 9] , apparent KD of K4 kissing-loop reporter reported as 0.115

So, UCACGAGUGAUGUUCGUCGCAAUCACCGAAGGAGCGGGCGAAAGCCCAGGUAGGUCGCGGUAGAAUAAUGAUUUUAUUCGAUUGC [Same State Arginine A GF 26] ? Its apparent KD of K4 kissing-loop reporter was 0.613

AGUGCACUGUCAGGAUAUGUACAGUGAUGUUGUGUAUGUCAGCAAGUCAAAGACUUGCUCUUCUGUGCAGAAGGGACUGUGUACA [Omei KL FMN B Exc A v5] has a reported apparent KD of K4 kissing-loop reporter of 0.506

Quick note, apparent KD of K4 kissing-loop reporter for ACCUACGAUCACAAUAGUGAUUGUAGGAACUAGGAUAUGCUGAAAAGCAGAAGGAGUGAUGUUCCAACUCAUGAAUAACAUGAGA [FmnAX 2 #OpenEnded #K4Late] landed at 0.274

apparent KD of K4 kissing-loop reporter reported for this sequence AAUAUAGUGAUGUUAUAUAAGAAGGAGUUACGAGGACCGGUACGGCCGCCACUCGAAACGAGUGAGGAUUUGGGAGAUUGGGUCC [SSTryptA.K] : 0.384

// apparent KD of K4 kissing-loop reporter value for AAUUGGGACGAAGGAUAUUGUCGGCCAUGUACGAGGUCCGGAUGUCAUGACUGUUAGUGAUGUUAACAAGAAGGUCGAGGGAGAC [theeternabot_exclusion_KL_FMN_B_25] : 0.119

Just so you know, measured apparent KD of K4 kissing-loop reporter for GGUCCGCGGUCGGCCGCCACUGAACAAGACCAGUGAUGUUGGAUCUUCCAGUGCGUUGGCUUUAACAGGACCGGGACCGUGGAGC [Titia] came out at 0.14

Field apparent KD of K4 kissing-loop reporter (entry UGAUACCAGACGGCCGCCACUGGGACCGGGAGUGAUGUUCCAAAUAAAAGAAGCUCGGCCGCCACUAGGACCGGGUCUGGUAUCU [TrypBX 21 #DoubleAptamer #SwitchBubble] ) reads 0.367

----------
System: MS2 coat protein
procedure text: apparent KD of MS2 coat protein; designed switch direction (-1 OFF switch, 1 ON switch): -1; higher = weaker reporter binding
run parameters: input ligand: FMN 200 uM
Could you label it 1.0 if measured apparent KD of MS2 coat protein is 30 nM or higher, and 0.0 otherwise?

Request: Form field: apparent KD of MS2 coat protein at least 30 nM? Entry: UAGAUGGGAGGAUAUACAUAGAUACAGAUUCAUGUAGUGCUACAUGAGGAUCACCCAUGUAGAAGGCCCGUCUU [JL-ex2-2.18 Mayanne mod] (Eterna round: R96, puzzle: Exclusion 2)
Response: 1.0

Request: Please check the record UUAGAAAUGGUAGGAUAUUAGUAGUGUUUUACUCUGAUCCACAUGAGGAUCACCCAUGUGAGUAGUGAGAAGGAUCAUUUUAUG [base off of JR design] (Eterna round: R96, puzzle: Exclusion NG 2) and state if its apparent KD of MS2 coat protein is at or above 30 nM.
Response: 0.0

Request: Can AAAGAACAUGAGGAUCACCCAUGUUAGGAUAUAGUAGCAGUGUAUCUAAAGACAGCAGCUAGAAGGAGCAUGAG [Eternabot (Original) Solution 46] (Eterna round: R97, puzzle: Exclusion 1) be said to have apparent KD of MS2 coat protein at or above 30 nM?
Response: 1.0

Request: // inclusive: apparent KD of MS2 coat protein at least 30 nM? input: AAUUAGUGAGGAUAUACUAACAGUGGUAGUAGAUAGUGGAUGUAGAAGGCACAUGAGGAUCACCCAUGUUAUAA [EX4 #52] (Eterna round: R97, puzzle: Exclusion 4)
Response: 0.0

Request: Quick check, apparent KD of MS2 coat protein >= 30 nM? CUGUACUGAGGAUAUACAUGAGGAUCACCCAUGUGUUCCAGCUAGGAAACUAGCAAAUGUAGAAGGCAGUACAG [Mat - Exclusion 3 - Eli Mod - D50] (Eterna round: R97, puzzle: Exclusion 3)
Response: 1.0

Request: Does the sequence CAUGUCCAACGAGGAUAUGGGACAGGAGGUGUACCAGAAGGCGUACGGACAUGAGGAUCACCCAUGUCGCGCGGUGCGAUGUGG [15th something] (Eterna round: R96, puzzle: Exclusion NG 1) have recorded apparent KD of MS2 coat protein that is 30 nM or more?
Response: 1.0

Request: apparent KD of MS2 coat protein >= 30 nM for CGAUAGAUAGGAUAUAUAAUUGGAAUUCACCUUGGGCGGCUACAUGAGGAUCACCCAUGUAGAAGGGUCUUCGA [Eternabot (L1) Solution 80] (Eterna round: R97, puzzle: Exclusion 2) ?
Response: 0.0

Request: Kindly determine if apparent KD of MS2 coat protein recorded for UAUUAGCAAGCGAGAUCCCACAUGAGGAUCACCCAUGUGCUCGUCUUAUAAGGUACUGUGACGAAAGUCACGGUACC [Sensor 3, v1 - 91] (Eterna round: R96, puzzle: Sensor v3, turn-off variant 1) is above or exactly 30 nM.
Response: 0.0

Request: Form field: apparent KD of MS2 coat protein at least 30 nM? Entry: CAGUACUGAGGAUAUACAUGAGGAUCACCCAUGUGUUCCAGCUGGGAAACUAGCAAAAGUAGAAGGCAGUACUG [salish99_ex3_r3_076] (Eterna round: R96, puzzle: Exclusion 3)
Response: 1.0

Request: Entry UGAGACUGAGGAUAUACUGGCCCAUAAAGUGGGUCGUGGGUACAUGAGGAUCACCCAUGUAGAAGGCAGCCUCG [Omei Repeat Sequence v6] (Eterna round: R97, puzzle: Exclusion 2) : is its apparent KD of MS2 coat protein no less than 30 nM?
Response: 1.0

Request: Given the entry UUUAGUUGGUAAGGAUAUCCUACAUUGUUCUGGCCCGGGCAUGCUACAUGAGGAUCACCCAUGUGGGAGAAGGUGCGUCAUUGC [Design 20] (Eterna round: R96, puzzle: Exclusion NG 2) , answer whether its apparent KD of MS2 coat protein meets or surpasses 30 nM.
Response: 1.0

Request: For this sequence, is measured apparent KD of MS2 coat protein 30 nM or higher? GUUACACAUGAGGAUCACCCAUGUGAGGAUAUGGAUUCGUUGCAAGUAGGCGAUGGAUCCAGAAGGCGCGUGAG [JR_Ex1_Sub080] (Eterna round: R97, puzzle: Exclusion 1)
Response: 1.0

Request: Answer whether apparent KD of MS2 coat protein of UGUCAGAUGGUAGGAUAUCCUUAUCGCGUGUCCCUUUCCUAACAUGAGGAUCACCCAUGUCGGUGGGAGAAGGGCCGUAUGGUG [salish99_ExNG02_R04_038] (Eterna round: R96, puzzle: Exclusion NG 2) is greater than or equal to 30 nM.
Response: 0.0

----------
Hi there, I'd appreciate the recorded apparent KD of K4 kissing-loop reporter for every entry that follows.
System: K4 kissing-loop RNA reporter;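 further: bound reporter read as fluorescence of individual clusters on recovered sequencing chips by microscopy, with normalized cluster intensities fitted with a binding model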
procedure text: apparent KD of K4 kissing-loop reporter; higher = weaker reporter binding
run parameters: Eterna round: R107; input ligand: arginine 13.2 mM
Express it in µM; write the number only.

Lookup result for AGGACGUGAGAAGAUACCAGAGAAUAAUGCAGUGAUGUUGCUAAAUAUAAUUUAAUAUAACUCCCUUGGCAGCUUAAGUUAGUCU [Theophylline b same state] ; measured apparent KD of K4 kissing-loop reporter: 0.12

Recorded apparent KD of K4 kissing-loop reporter (sequence AUUUUUUUGUCAGGAUAUUAGUGUGGGUUUGGUUUGUUAGUGAUGUUGAUAUUUGGUUUAUGUAUUUAAGAAGGGAUUUAGCGGU [frrvemullin] ): 0.359

apparent KD of K4 kissing-loop reporter recorded for this sequence, GUGCGGCUAGUGAUGUUGGUUGUGUGGGAAGGAGCGCAGAUUCAUGCAGGUAGGUCGCCCACACCUCUGAAAGGAGGCUAAUUCA [KL-SSArg-A16] , is 0.3

Attribution: the supplement of paper PMC9170038
